Tested on: HOP-92 NSCLC
Assay: NCI-60 one-dose screen, 48 h
Conditions: 10 µM unless noted
Compounds without any hit were thinned out: in the full panel of roughly 83,000, 20% have a hit. Active and inactive are the calls of the source. Rule for the calls: active = growth percent below 10; inactive = the rest.
Labels: Y for active, N for inactive

molecule	assigned label
CS(=O)(=O)c1ccc(-c2cc(-c3nnc(SCC(=O)Nc4ccc(C(=O)/C=C/c5ccc(Cl)cc5)cc4)n3-c3ccccc3)c3ccccc3n2)cc1	N
Nc1cc(N)c2cccnc2c1O	N
CN1CCN(CC#CCNC(=O)[C@]23CCC(C)(C)C[C@H]2C2=CC[C@@H]4[C@@]5(C)Cc6c([nH]c7ccccc67)C(C)(C)[C@@H]5CC[C@@]4(C)[C@]2(C)CC3)CC1	N
C#CC(=O)Nc1cccc(Nc2nc3c(c(NCc4ccccc4)n2)CCCC3)c1	Y
